B1: Ankyrin-2, residues 3571 to 3650; numbered along this chain, Q01484 (parent)
chain: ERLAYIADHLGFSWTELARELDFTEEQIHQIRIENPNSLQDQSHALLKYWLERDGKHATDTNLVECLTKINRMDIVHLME

variants of: B1; test: abundance fitness (aPCA) (normalised: wild type 0, dead -1); higher = more abundant; growth selection in yeast, the domain comes from the species named; conditions: Homo sapiens
reported.property: abundance fitness
Lab note: record the figure alone, no unit after it.

Worked examples, 5 variants total:
Q: If you can, please state the reported abundance fitness value of `I33R` .
Result: 0.011

Q: Request: `H29Y`
Result: -0.294

Q: Request: `L3K`
Result: -0.179

Q: Request: `L39Y`
Result: 0.076

Q: Request: `E52W`
Result: -0.045

Next:
Q: If you can, please state the reported abundance fitness value of `W50F` .
Result: -0.086
